Below, each of the molecules is paired with its reported % inhibition value.
system: Trypanosoma brucei; assay: DNDI: Inhibition of Human African Trypanosomiasis, SBRI 427, in vitro at 2 ug.mL-1; format: functional
Among all 4,400 compounds or so, about 390 (8.9%) showed an effect of 50% or more. The list comes from a sample in which strong results are over-represented; it also holds close analogues and randomly drawn compounds.
Give just the number in %; leave the unit off.

Some entries whose results are on file:
Task item: Requested read-out: % inhibition. Entry: Cc1ccc(/C(=N/O)NC2CCc3ccccc32)c(Oc2c(F)c(F)cc(F)c2F)n1 (stereo not given)
Reply: 7

Task item: Requested read-out: % inhibition. Entry: COCC(C)NCc1coc(-c2ccccc2C)n1 (stereo not given)
Reply: 9

Task item: Requested read-out: % inhibition. Entry: `CCOc1ccc(-c2nc(CNCC(C)(C)CN(C)C)co2)cc1`
Reply: 39

Task item: Requested read-out: % inhibition. Entry: `O=[N+]([O-])c1ccc(N2CCN(Cc3coc(-c4cccc(F)c4)n3)CC2)cc1`
Reply: -6

Task item: Requested read-out: % inhibition. Entry: `Cc1ccc(Oc2nc(C)ccc2/C(=N/O)NCC(C)C)c(C)c1`
Reply: 20

Task item: Requested read-out: % inhibition. Entry: `Cc1ccc(/C(=N/O)NCCN2CCCC2)c(Oc2cccc(F)c2)n1`
Reply: -3

Task item: Requested read-out: % inhibition. Entry: `CCC(CC)N/C(=N\O)c1ccc(C)nc1Oc1ccc(F)cc1`
Reply: 24

Task item: Requested read-out: % inhibition. Entry: `Clc1ccccc1-c1nc(CN2CCCc3ccccc32)co1`
Reply: 1

Next:
Task item: Requested read-out: % inhibition. Entry: `Cc1ccc(/C(=N/O)NCc2cc(F)ccc2F)c(Oc2cc(Cl)ccc2Cl)n1`
Reply: -39

Task item: Requested read-out: % inhibition. Entry: `Cc1ccc(/C(=N/O)N2CCCc3ccccc32)c(Oc2cccc(F)c2)n1`
Reply: 93

Task item: Requested read-out: % inhibition. Entry: `CSc1ccc(Oc2nc(C)ccc2/C(=N/O)N2CCCc3ccccc32)cc1C`
Reply: 10

Task item: Requested read-out: % inhibition. Entry: `COc1cc(C)ccc1Oc1nc(C)ccc1/C(=N/O)NC(C)C`
Reply: 29

Task item: Requested read-out: % inhibition. Entry: `O/N=C(\NCCN1CCOCC1)c1ccc(Oc2cccc3cccnc23)nc1`
Reply: 9

Task item: Requested read-out: % inhibition. Entry: `COc1cccc(CN/C(=N\O)c2ccc(C)nc2Oc2cc(Cl)ccc2Cl)c1`
Reply: -48

Task item: Requested read-out: % inhibition. Entry: COc1cc(C)ccc1Oc1nc(C)ccc1/C(=N/O)NCC1CCCO1 (stereo not given)
Reply: 15

Task item: Requested read-out: % inhibition. Entry: `COc1ccc(Oc2nc(C)ccc2/C(=N/O)N2CCCc3ccccc32)cc1`
Reply: 11

###

Below, each of the compounds is paired with its reported % inhibition value.
tested on: Trypanosoma brucei; assay: DNDI: Inhibition of Human African Trypanosomiasis, SBRI 427, in vitro at 2 ug.mL-1; format: functional
Among all 4,400 compounds or so, about 390 (8.9%) showed an effect of 50% or more. What follows is part of a selection rich in strong results, with near analogues and random picks from the rest.
Give just the number in %; leave the unit off.

Some entries whose results are on file:
Task item: Requested read-out: % inhibition. Entry: `COc1cccc(Oc2ccc(/C(=N/O)Nc3ccc(C(C)C)cc3)cn2)c1`
Reply: -4

Task item: Requested read-out: % inhibition. Entry: `CC(C)CN/C(=N\O)c1ccnc(Oc2ccc(Cl)cc2)c1`
Reply: 25

Task item: Requested read-out: % inhibition. Entry: `Cc1ccc(/C(=N/O)NCc2ccccc2)c(Oc2ccc(F)c(F)c2)n1`
Reply: 23

Next:
Task item: Requested read-out: % inhibition. Entry: `COc1ccc(Oc2cc(/C(=N/O)NCC(C)(C)C)ccn2)cc1`
Reply: 92

Task item: Requested read-out: % inhibition. Entry: `COc1ccc(Oc2cc(/C(=N/O)NC3CCCCC3)ccn2)cc1`
Reply: 100

Task item: Requested read-out: % inhibition. Entry: `COc1ccc(Oc2cc(/C(=N/O)NCc3cc(F)cc(F)c3)ccn2)cc1`
Reply: 5

Task item: Requested read-out: % inhibition. Entry: COc1ccc(Oc2cc(/C(=N/O)N3C(C)CCCC3C)ccn2)cc1 (stereo unspecified)
Reply: 10

###

Below, each of the compounds is paired with its reported % inhibition value.
system: Trypanosoma brucei; assay: DNDI: Inhibition of Human African Trypanosomiasis, SBRI 427, in vitro at 2 ug.mL-1; format: functional
The whole screen tested about 4,400 compounds, of which about 390 (8.9%) showed an effect of 50% or more. The full list was thinned out, with strong results kept by preference.
Give just the number in %; leave the unit off.

Some entries whose results are on file:
Task item: Requested read-out: % inhibition. Entry: `COc1cccc(Oc2ccc(/C(=N/O)NCC3CCCCC3)cn2)c1`
Reply: 87

Task item: Requested read-out: % inhibition. Entry: `CCOc1ccccc1CN/C(=N\O)c1cccnc1Oc1ccccc1SC`
Reply: 100

Next:
Task item: Requested read-out: % inhibition. Entry: `CCOc1ccccc1-c1nc(CN(c2ccccc2)C2CCCCC2)co1`
Reply: -3

Task item: Requested read-out: % inhibition. Entry: `COc1ccc(Oc2nc(C)ccc2/C(=N/O)NC2CC2)cc1`
Reply: 4

Task item: Requested read-out: % inhibition. Entry: `COCCN/C(=N\O)c1ccc(C)nc1Oc1ccc(SC)c(C)c1`
Reply: 98

###

Below, each of the molecules is paired with its reported % inhibition value.
tested on: Trypanosoma brucei; assay: DNDI: Inhibition of Human African Trypanosomiasis, SBRI 427, in vitro at 2 ug.mL-1; assay type: functional
Screen size: about 4,400 compounds; about 390 (8.9%) showed an effect of 50% or more. The list comes from a sample in which strong results are over-represented; it also holds close analogues and randomly drawn compounds.
Please give the number followed by its unit.

Task item: Requested read-out: % inhibition. Entry: `N/C(=N\O)c1ccnc(Oc2cccc3c2CCCC3)c1`
Reply: 7%

Task item: Requested read-out: % inhibition. Entry: `O/N=C(\NC1CCCC1)c1ccc(Oc2ccc(Cl)cc2)nc1`
Reply: 98%

Task item: Requested read-out: % inhibition. Entry: `COCCN(Cc1coc(-c2ccccc2Cl)n1)C(C)C`
Reply: -24%

Task item: Requested read-out: % inhibition. Entry: `CC(C)(C)c1ccc(-c2nc(Cn3nc(N)cc3-c3ccccc3)co2)cc1`
Reply: 9%

Task item: Requested read-out: % inhibition. Entry: `COc1ccc(CN/C(=N\O)c2ccc(Oc3cc(C)cc(C(C)C)c3)nc2)cc1`
Reply: 28%

Task item: Requested read-out: % inhibition. Entry: Cc1ccc2cccc(Oc3cc(/C(=N/O)NC4CC(C)CC(C)(C)C4)ccn3)c2n1 (configuration not stated)
Reply: 10%

Task item: Requested read-out: % inhibition. Entry: CC1CCC(N/C(=N\O)c2ccc(Oc3ccc(-n4ccnc4)cc3)nc2)CC1 (configuration not stated)
Reply: 21%

Task item: Requested read-out: % inhibition. Entry: `CN(C)CCN(C)Cc1coc(-c2ccc(O)cc2)n1`
Reply: 7%

Task item: Requested read-out: % inhibition. Entry: `O/N=C(/c1ccnc(Oc2cccc3c2CCCC3)c1)N1CCN(c2ccccc2)CC1`
Reply: 22%

Task item: Requested read-out: % inhibition. Entry: `CCOc1ccccc1CNCc1coc(-c2ccc(OC)cc2)n1`
Reply: -13%

Next:
Task item: Requested read-out: % inhibition. Entry: `COc1ccc(-c2nc(CNC34C[C@H]5C[C@@H](C3)C[C@@H](C4)C5)co2)cc1`
Reply: 3%

Task item: Requested read-out: % inhibition. Entry: `Cn1nc(C(C)(C)C)cc1NCc1coc(-c2ccc(C(F)(F)F)cc2)n1`
Reply: -8%

Task item: Requested read-out: % inhibition. Entry: `CCc1ccc(Oc2ccc(/C(=N/O)NC3CCCC3)cn2)cc1`
Reply: 78%

Task item: Requested read-out: % inhibition. Entry: O/N=C(\NC1CCc2ccccc21)c1ccc(Oc2ccc(Cl)cc2)nc1 (configuration not stated)
Reply: -11%

###

system: Trypanosoma brucei; experiment: DNDI: Inhibition of Human African Trypanosomiasis, SBRI 427, in vitro at 2 ug.mL-1; assay type: functional
Screen size: about 4,400 compounds; about 390 (8.9%) showed an effect of 50% or more. The sample as a whole holds a higher share of strong results than the screen did.
measured quantity: % inhibition (%)
Give just the number in %; leave the unit off.

Task item: Lab note: need % inhibition for `Cc1ccc(-c2nc(CN3CC[C@@H]4CCCC[C@@H]4C3)co2)cc1` on Trypanosoma brucei, anyone have it?
Reply: -5

Task item: Lab note: need % inhibition for `COc1ccc(Oc2nc(C)ccc2/C(=N/O)N2CCC=N2)cc1` on Trypanosoma brucei, anyone have it?
Reply: 8

Task item: Lab note: need % inhibition for `CN(Cc1coc(-c2ccc(Br)cc2)n1)CC1OCCO1` on Trypanosoma brucei, anyone have it?
Reply: 11

Task item: Lab note: need % inhibition for `CCCN(CC1CC1)/C(=N\O)c1cccnc1Oc1ccccc1OC` on Trypanosoma brucei, anyone have it?
Reply: 24

Next:
Task item: Lab note: need % inhibition for `Brc1ccccc1-c1nc(CNCc2ccccc2)co1` on Trypanosoma brucei, anyone have it?
Reply: 11

Task item: Lab note: need % inhibition for `CC(C)(C)CNCc1coc(-c2ccccc2Br)n1` on Trypanosoma brucei, anyone have it?
Reply: 7

Task item: Lab note: need % inhibition for CC1CCC(N/C(=N\O)c2cccnc2Oc2ccccc2OC(C)C)CC1 (centres undefined) on Trypanosoma brucei, anyone have it?
Reply: 98

Task item: Lab note: need % inhibition for `CC(C)Oc1ccccc1Oc1ncccc1/C(=N/O)NC1CCCCC1` on Trypanosoma brucei, anyone have it?
Reply: 99

Task item: Lab note: need % inhibition for N#CCCN(Cc1coc(-c2cccc(F)c2)n1)CC1CCCO1 (centres undefined) on Trypanosoma brucei, anyone have it?
Reply: -9
